# Experimental System: T1, GkDnaC R330A (Geobacillus kaustophilus HTA426, UniProt Q5KU75 1-454, R330A)
# T1 sequence: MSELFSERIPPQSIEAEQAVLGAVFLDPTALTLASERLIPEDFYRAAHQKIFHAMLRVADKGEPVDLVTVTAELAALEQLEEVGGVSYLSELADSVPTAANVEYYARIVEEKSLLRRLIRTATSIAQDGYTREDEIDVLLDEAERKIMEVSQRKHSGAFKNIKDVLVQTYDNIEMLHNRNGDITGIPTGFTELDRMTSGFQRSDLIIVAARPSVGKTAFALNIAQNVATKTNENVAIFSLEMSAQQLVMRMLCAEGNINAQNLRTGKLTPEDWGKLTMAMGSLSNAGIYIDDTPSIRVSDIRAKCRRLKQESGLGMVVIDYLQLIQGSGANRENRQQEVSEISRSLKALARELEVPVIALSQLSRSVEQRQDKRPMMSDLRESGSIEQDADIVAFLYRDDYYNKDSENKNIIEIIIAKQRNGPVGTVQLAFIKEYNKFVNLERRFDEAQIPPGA
# Test Method Notes: SPR
Recorded Metric: pKd
pKd is defined as minus the log10 of a concentration measured in mol/L.

Input line: # get_value(readout='pKd', item= TTTTTTTTTTTTTTTTTTTTTTTTTTTTTT (ssDNA) [5'Bio-(dT)30] )
Output line: 4.75
